- Test system: Fibroblast
- EXPERIMENTAL DETAILS: Incucyte cell viability with human fibroblast; note: unitless GR value; below 1 slowed growth and below 0 cell loss
- Type: toxicity, cell-based
- STATED CONDITIONS: 6 h, 10 µM, compound concentration 10 uM, replicate number 2
Recorded Growth Rate, one value per entry.
METRIC: Growth Rate

COMPOUND: CCCCCCCCCCCCCC(=O)O[C@@H]1[C@@H](C)[C@@]2(O)[C@@H](C=C(CO)C[C@]3(O)C(=O)C(C)=C[C@@H]23)[C@@H]2C(C)(C)[C@]12OC(C)=O [PHORBOL MYRISTATE ACETATE]
METRIC: Growth Rate
VALUE OBSERVED: -1
--
COMPOUND: CN1CCN(C(=O)Cc2ccc(N/C(=C3\C(=O)Nc4cc(Cl)ccc43)c3ccccc3)cc2)CC1
METRIC: Growth Rate
VALUE OBSERVED: -0.1
--
COMPOUND: COc1cc(C(C)C)c(Oc2cnc(NC(CO)CO)nc2N)cc1I
METRIC: Growth Rate
VALUE OBSERVED: 0.67
--
COMPOUND: Cc1ccc(NC(=O)c2ccc3c(c2)OCCO3)cc1NC(=O)c1ccc2nc(OCCN3CCCC3)ccc2c1
METRIC: Growth Rate
VALUE OBSERVED: -0.58
--
COMPOUND: N=C(N)NCCC[C@H](NC(=O)C(c1ccccc1)c1ccccc1)C(=O)NCc1ccc(CNC(N)=O)cc1.O=C(O)C(F)(F)F
METRIC: Growth Rate
VALUE OBSERVED: -0.57
--
COMPOUND: Cc1ccc(S(=O)(=O)Nc2ccc(-n3nc(C(F)(F)F)cc3C(F)(F)F)cc2)cc1
METRIC: Growth Rate
VALUE OBSERVED: -1
--
COMPOUND: CCN(C(=O)c1cc(F)ccc1Oc1cncnc1N1CC2(CCN(C[C@H]3CC[C@H](NS(=O)(=O)CC)CC3)CC2)C1)C(C)C
METRIC: Growth Rate
VALUE OBSERVED: 0.81

Every entry's value here was drawn from ChEMBL document CHEMBL5303304.
